subject.of.test: Bcl-2-related protein A1 (Mus musculus)
Sequence (Q07440 whole entry): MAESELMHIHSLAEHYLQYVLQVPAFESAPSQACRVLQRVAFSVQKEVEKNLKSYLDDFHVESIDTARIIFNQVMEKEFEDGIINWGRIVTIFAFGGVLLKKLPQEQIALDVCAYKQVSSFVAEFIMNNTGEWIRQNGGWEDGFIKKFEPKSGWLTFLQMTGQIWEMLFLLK
assay.name: small-molecule antagonists of Bfl-1/BH3 interaction – biochemical, TR-FRET, mouse Bfl-1, confirmation (AID 621);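 further: TR-FRET binding of GST-Bfl-1 to FITC-labelled Bid peptide via terbium antibody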
Activity calls are given as the source filed them.
observed.property: IC50

Solved cases below.
CC1CCN(C2CC(=O)N(c3ccc(Cl)c(Cl)c3)C2=O)CC1 (centres undefined) :: > 100 µM (not active)
O=C1C(Cl)=C(N2CCN(c3ccccc3Cl)CC2)C(=O)N1c1ccc(Cl)c(Cl)c1 :: > 100 µM (not active)
CC(C)[C@H]1C(=O)N2CCC[C@H]2[C@]2(O)O[C@](NC(=O)[C@@H]3C=C4c5cccc6[nH]cc(c56)C[C@H]4N(C)C3)(C(C)C)C(=O)N12 :: > 100 µM (not active)

Turning to the following molecule.
// molecule O=C1C(Cl)=C(Cl)C(=O)N1c1ccc(Cl)nc1 , assay Bcl-2-related protein A1 (Mus musculus), IC50 value: 33.8 µM (active)

* * *

Documented IC50 across a set of molecules
subject.of.test: Sentrin-specific protease 6 (Homo sapiens)
Sequence (Q9GZR1 whole entry): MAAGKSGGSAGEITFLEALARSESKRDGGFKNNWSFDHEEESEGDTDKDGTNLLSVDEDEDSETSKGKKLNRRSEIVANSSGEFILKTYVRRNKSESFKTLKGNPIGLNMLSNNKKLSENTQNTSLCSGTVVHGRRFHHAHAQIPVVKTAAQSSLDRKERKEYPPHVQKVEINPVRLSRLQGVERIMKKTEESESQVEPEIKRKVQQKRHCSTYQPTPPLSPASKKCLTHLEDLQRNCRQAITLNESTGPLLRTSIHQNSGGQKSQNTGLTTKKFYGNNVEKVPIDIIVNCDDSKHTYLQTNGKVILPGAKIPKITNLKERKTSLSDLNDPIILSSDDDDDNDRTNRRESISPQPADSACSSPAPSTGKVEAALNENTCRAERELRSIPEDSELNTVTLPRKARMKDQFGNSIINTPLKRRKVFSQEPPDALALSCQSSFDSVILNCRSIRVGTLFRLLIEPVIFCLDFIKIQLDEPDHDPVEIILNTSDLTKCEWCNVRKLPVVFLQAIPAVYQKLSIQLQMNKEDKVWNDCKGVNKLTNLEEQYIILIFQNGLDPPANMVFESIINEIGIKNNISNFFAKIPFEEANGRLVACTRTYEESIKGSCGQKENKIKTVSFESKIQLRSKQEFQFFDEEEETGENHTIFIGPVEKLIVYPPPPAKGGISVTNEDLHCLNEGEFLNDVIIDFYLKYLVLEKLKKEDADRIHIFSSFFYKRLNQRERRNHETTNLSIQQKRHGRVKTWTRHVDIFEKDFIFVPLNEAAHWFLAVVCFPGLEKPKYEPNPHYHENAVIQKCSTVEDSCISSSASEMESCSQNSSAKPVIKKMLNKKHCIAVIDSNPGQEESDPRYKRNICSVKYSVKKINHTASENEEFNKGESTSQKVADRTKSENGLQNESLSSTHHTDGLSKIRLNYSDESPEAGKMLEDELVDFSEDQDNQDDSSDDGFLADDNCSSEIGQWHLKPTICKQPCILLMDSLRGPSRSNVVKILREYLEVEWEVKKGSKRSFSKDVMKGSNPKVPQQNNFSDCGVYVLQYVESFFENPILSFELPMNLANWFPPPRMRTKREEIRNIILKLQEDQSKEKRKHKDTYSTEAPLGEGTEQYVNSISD
Assay type: functional
Calls of active or inactive are those of the source.

Consider the reported IC50 for these molecules:
CC(=O)c1sc(N/N=C\c2ccc(N(C)C)cc2)nc1C :: 3.82 µM (active)
CC(=O)N(C1=C(Cl)C(=O)c2ccccc2C1=O)c1ccc(C(=O)O)cc1 :: 4.08 µM (active)
CC(C)OCCCNC1=C(Cl)C(=O)c2ccccc2C1=O :: 8.48 µM (active)
CCOC(=O)c1cc(-c2cc3ccccc3o2)[nH]n1 :: 21.6 µM (active)

Now for the molecule whose IC50 we want.
IC50 measured on O=C(/C=C/c1ccc(Br)cc1)NC(=O)c1ccccc1O = 15.2 µM (active)

* * *

EC50: recorded values
subject.of.test: Zinc finger protein mex-5 (Caenorhabditis elegans, UniProt Q9XUB2)
Sequence (Q9XUB2 whole entry): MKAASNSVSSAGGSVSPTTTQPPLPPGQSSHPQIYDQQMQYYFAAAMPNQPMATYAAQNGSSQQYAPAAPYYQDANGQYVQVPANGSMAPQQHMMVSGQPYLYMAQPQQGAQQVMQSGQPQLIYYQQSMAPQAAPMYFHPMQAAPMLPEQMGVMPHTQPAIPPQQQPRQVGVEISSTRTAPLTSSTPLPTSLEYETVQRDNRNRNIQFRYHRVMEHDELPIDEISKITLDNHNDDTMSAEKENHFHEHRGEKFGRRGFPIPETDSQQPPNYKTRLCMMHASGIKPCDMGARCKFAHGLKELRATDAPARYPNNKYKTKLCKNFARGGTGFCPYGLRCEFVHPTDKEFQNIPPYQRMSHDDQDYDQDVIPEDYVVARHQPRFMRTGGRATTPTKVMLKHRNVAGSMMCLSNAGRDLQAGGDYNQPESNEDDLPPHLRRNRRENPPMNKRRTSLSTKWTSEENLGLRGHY
assay.name: potency of MEX-5 RNA-binding blockers – biochemical, C. elegans, fluorescence polarization, dose response (AID 1960)
The source made the active and inactive calls.

O=C1C=C(O)c2c(O)cc(O)c(O)c2C1=O :: 0.899 µM (active)
Cc1ccc(S(=O)(=O)N(CCCN2CCCC2=O)Cc2cc3c(C)ccc(C)c3[nH]c2=O)cc1 :: > 300 µM (not active)
C=CCN1C(=O)NC(=O)/C(=C/c2ccc(OC)c(CSc3ccccn3)c2)C1=O :: > 300 µM (not active)

# EC50 (molecule: COc1ccc2c(c1)c1nc3ccccc3nc1n2Cc1ccc(OC)c(OC)c1 ) is 43.1 µM (active)

EC50 measured on O=C(Nc1ccccc1O)c1cccc(S(=O)(=O)Nc2ccccc2O)c1 = 36.2 µM (active)

* * *

subject.of.test: UniProtKB P49327
Sequence (P49327 whole entry): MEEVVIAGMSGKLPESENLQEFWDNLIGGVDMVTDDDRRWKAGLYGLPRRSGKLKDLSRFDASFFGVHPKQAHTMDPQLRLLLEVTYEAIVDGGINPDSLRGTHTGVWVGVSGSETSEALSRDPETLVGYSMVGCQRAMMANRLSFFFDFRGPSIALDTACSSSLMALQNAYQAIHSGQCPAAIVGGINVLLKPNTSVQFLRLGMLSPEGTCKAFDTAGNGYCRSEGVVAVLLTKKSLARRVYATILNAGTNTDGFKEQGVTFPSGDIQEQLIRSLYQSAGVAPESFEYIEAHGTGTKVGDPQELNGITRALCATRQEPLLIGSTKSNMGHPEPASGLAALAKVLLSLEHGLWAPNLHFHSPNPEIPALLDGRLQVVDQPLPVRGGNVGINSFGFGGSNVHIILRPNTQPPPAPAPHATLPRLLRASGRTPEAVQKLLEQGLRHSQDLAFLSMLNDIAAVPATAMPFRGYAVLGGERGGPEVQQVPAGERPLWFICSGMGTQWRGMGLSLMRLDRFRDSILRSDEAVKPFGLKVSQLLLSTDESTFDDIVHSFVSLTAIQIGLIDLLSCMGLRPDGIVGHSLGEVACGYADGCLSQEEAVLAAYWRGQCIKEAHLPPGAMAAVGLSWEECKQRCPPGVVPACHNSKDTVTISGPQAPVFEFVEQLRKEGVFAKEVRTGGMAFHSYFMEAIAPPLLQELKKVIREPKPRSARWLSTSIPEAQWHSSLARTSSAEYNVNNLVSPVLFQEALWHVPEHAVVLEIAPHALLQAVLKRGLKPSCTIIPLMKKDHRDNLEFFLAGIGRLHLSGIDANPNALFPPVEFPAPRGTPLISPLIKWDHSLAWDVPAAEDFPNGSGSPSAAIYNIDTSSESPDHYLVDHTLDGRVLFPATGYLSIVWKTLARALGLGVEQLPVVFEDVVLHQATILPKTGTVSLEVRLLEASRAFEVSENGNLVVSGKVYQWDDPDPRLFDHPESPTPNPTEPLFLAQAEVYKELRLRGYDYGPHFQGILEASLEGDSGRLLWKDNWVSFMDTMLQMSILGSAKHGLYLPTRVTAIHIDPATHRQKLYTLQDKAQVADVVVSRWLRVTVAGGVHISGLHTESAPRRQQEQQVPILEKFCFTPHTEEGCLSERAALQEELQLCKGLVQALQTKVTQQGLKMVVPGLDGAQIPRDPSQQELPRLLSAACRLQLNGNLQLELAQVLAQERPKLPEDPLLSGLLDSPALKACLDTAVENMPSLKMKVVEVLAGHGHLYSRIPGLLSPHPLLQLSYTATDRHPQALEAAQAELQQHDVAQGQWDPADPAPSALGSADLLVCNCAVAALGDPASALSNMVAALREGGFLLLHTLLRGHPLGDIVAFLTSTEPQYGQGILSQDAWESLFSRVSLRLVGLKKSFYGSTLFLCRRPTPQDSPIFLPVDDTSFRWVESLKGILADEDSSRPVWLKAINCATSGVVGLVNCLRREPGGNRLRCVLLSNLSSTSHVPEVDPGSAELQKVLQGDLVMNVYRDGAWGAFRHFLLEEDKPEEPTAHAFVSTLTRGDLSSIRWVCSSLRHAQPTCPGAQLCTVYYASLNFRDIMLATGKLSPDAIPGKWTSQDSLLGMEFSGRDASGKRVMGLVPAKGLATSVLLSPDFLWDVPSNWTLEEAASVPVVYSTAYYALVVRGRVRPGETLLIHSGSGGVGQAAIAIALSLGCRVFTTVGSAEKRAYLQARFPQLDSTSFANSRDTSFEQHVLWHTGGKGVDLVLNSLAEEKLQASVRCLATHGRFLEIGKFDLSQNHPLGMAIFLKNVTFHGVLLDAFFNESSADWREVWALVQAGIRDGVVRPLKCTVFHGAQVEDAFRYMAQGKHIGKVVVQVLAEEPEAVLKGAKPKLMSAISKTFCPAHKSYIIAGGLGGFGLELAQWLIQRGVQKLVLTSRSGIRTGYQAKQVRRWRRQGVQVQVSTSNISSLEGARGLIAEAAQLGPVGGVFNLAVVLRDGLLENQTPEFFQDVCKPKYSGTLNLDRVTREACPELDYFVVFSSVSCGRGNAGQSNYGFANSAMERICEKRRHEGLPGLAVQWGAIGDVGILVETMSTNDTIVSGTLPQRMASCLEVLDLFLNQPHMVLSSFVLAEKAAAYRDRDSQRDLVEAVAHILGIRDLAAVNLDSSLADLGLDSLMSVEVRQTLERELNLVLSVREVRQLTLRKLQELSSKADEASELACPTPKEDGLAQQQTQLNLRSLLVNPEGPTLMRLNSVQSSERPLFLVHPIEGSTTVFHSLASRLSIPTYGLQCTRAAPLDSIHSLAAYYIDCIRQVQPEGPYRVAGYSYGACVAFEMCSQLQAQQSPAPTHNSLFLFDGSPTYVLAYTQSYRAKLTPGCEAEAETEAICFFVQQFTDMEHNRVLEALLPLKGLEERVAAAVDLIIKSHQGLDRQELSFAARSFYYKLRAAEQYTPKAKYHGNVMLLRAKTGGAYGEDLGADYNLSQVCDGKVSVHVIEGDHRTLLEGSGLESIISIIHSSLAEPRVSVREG
assay.name: inhibition of human FAS-TE enzyme activity – biochemical, endpoint fluorescence intensity, uHTS hits, dose response (AID 624327);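 further: fluorescence from hydrolysis of an O-methyl fluorescein acyl ester substrate by the enzyme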
Format: functional
Activity calls are given as the source filed them.
Measured IC50 of individual entries

Solved cases (5 shown):
CC(OC(=O)c1ccc(Cl)c([N+](=O)[O-])c1)C(=O)N1CCN(Cc2ccccc2)CC1 (stereo unspecified) :: 6.15 µM (active)
N#Cc1c(-c2cccs2)nc(SCc2ccc(Cl)cc2)[nH]c1=O :: 6.44 µM (active)
O=[N+]([O-])c1cccc(OCCN2CCC(Cc3ccccc3)CC2)c1 :: 5.3 µM (active)
O=C1/C(=C/c2ccccc2Cl)SC(=S)N1CCCC(=O)N(CCO)c1ccccc1 :: 14.2 µM (active)
COCCOc1ccc(C(F)(F)F)cc1NC(=O)Cc1ccc(S(=O)(=O)N2CCOCC2)s1 :: 6.76 µM (active)

Consider the record given below.
The compound listed as O=C(NCCc1ccccc1)/C(=C\c1cccc([N+](=O)[O-])c1)NC(=O)c1ccco1 shows IC50 equal to 3.04 µM (active)

Values from ChEMBL document CHEMBL1201862
